testedOn: HTRA1-1 (human)
Sequence (chain, as listed by the source): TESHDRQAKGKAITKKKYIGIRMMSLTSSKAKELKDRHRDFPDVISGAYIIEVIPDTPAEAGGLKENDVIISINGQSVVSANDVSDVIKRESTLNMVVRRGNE
assayExplanation: FP
Where no end group is shown, it is not given here.
readout: pKd
Scale explanation: pKd corresponds to minus log10 of a concentration expressed in moles per litre.

Fill in reported pKd for this entry: Fluorescein-KLPSTTL [fRSK1]
4.19
